compounds and their reported SGLT2 % inhibition at 100 nM
target: human SGLT2 (Homo sapiens, UniProt P31639); construct: expressed in transfected cells; host or cells: CHO-k1; experiment: Inhibition test of sodium-dependent sugar uptake in CHO-k1 cells stably expressing human SGLT2; assay type: cell-based; conditions: sugar uptake inhibition rate at 100 nM test compound vs control group
Sequence (P31639 whole entry): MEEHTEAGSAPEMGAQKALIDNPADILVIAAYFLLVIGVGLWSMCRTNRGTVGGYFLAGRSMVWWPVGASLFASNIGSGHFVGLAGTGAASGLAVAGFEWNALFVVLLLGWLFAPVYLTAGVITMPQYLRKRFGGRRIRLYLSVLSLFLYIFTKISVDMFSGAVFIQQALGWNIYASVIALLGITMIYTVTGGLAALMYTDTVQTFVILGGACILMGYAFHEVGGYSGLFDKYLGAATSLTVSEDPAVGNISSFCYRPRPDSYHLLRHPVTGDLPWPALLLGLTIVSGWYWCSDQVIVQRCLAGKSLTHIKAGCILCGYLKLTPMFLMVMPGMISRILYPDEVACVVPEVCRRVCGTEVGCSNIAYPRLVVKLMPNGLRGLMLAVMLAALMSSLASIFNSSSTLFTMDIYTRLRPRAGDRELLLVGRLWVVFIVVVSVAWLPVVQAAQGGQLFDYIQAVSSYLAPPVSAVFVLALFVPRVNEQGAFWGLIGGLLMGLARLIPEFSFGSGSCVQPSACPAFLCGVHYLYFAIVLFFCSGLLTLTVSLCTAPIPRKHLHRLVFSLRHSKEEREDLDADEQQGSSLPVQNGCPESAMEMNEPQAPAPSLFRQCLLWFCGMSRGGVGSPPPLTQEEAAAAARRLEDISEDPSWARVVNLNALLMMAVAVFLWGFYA
Field: numeric (%). Do not append units.

Example results:
| Compound | Unit Label | SGLT2 % inhibition at 100 nM |
| --- | --- | --- |
| Cc1cc(O)c([C@@H]2O[C@H](CO)[C@@H](O)[C@H](O)[C@H]2O)cc1Cc1ccc(CCNC(=O)NCc2cc3ccccc3s2)cc1 [Compound 61] | % | 95 |
| Cc1cc(O)c([C@@H]2O[C@H](CO)[C@@H](O)[C@H](O)[C@H]2O)cc1Cc1ccc(CCNC(=O)NC(C)(C)C)cc1 [Compound 39] | % | 83 |
| CCCNC(=O)NCCc1ccc(Cc2cc([C@@H]3O[C@H](CO)[C@@H](O)[C@H](O)[C@H]3O)c(O)cc2C)cc1 [Compound 56] | % | 77 |
| Cc1cc(O)c([C@@H]2O[C@H](CO)[C@@H](O)[C@H](O)[C@H]2O)cc1Cc1ccc(CCNC(=O)NCc2ccco2)cc1 [Compound 42] | % | 87 |
| Cc1cc(O)c([C@@H]2O[C@H](CO)[C@@H](O)[C@H](O)[C@H]2O)cc1Cc1ccc(CCNC(=O)NCC(O)COc2ccccc2)cc1 (stereo partly shown) [Compound 66] | % | 83 |

Item: Cc1cc(O)c([C@@H]2O[C@H](CO)[C@@H](O)[C@H](O)[C@H]2O)cc1Cc1ccc(CCNC(=O)NCCc2ccc(O)cc2)cc1 [Compound 63] Test system: human SGLT2 (Homo sapiens, UniProt P31639) Read-out: SGLT2 % inhibition at 100 nM Value: ? 81

Reported SGLT2 % inhibition at 100 nM for human SGLT2 (Homo sapiens, UniProt P31639), given Cc1cc(O)c([C@@H]2O[C@H](CO)[C@@H](O)[C@H](O)[C@H]2O)cc1Cc1ccc(CCNC(=O)NCCCCc2ccccc2)cc1 [Compound 62] ? 79

Notebook entry, human SGLT2 (Homo sapiens, UniProt P31639) assay: SGLT2 % inhibition at 100 nM of Cc1cc(O)c([C@@H]2O[C@H](CO)[C@@H](O)[C@H](O)[C@H]2O)cc1Cc1ccc(CCNC(=O)NC2Cc3ccccc3C2)cc1 [Compound 138] = ? 84

Could you share what SGLT2 % inhibition at 100 nM was measured for COc1ccc(CCN(C)C(=O)NCCc2ccc(Cc3cc([C@@H]4O[C@H](CO)[C@@H](O)[C@H](O)[C@H]4O)c(O)cc3C)cc2)cc1OC [Compound 57] , tested on human SGLT2 (Homo sapiens, UniProt P31639)? 51

Quick check: SGLT2 % inhibition at 100 nM on human SGLT2 (Homo sapiens, UniProt P31639), item Cc1cc(O)c([C@@H]2O[C@H](CO)[C@@H](O)[C@H](O)[C@H]2O)cc1Cc1ccc(CCNC(=O)NCC2OCCO2)cc1 [Compound 64] ? 76
